# particulars: in water, 293.2 K
reported-metric: solubility (mole fraction)

# input Need solubility (mole fraction), item "Clc1ccccc1C(c1ccccc1)(c1ccccc1)n1ccnc1"
# output 2.42e-08

###

# particulars: in ethanol, 298.2 K
reported-metric: solubility (mole fraction)
Form field (numeric): enter value without unit.

# input For "Clc1ccccc1C(c1ccccc1)(c1ccccc1)n1ccnc1" , what is its reported solubility (mole fraction)?
# output 0.0167

###

# particulars: in ethanol, 313.2 K
reported-metric: solubility (mole fraction)

# input // lookup solubility (mole fraction) for "Clc1ccccc1C(c1ccccc1)(c1ccccc1)n1ccnc1"
# output 0.0312
